Tested on: OVCAR-8 ovarian
Experiment: NCI-60 one-dose screen, 48 h (100 = growth as untreated, 0 = no growth, -100 = all killed)
Conditions: 10 µM unless noted
About 83,000 compounds went through this panel and 20% of them were active in at least one assay; those are over-represented in the sample as a whole.
Below, each entry is listed with its recorded growth.
Report the value in % with no unit label.

// query Query growth on OVCAR-8 ovarian for CCCCN(CCCC)CCC(O)c1cc2ccc(C(F)(F)F)cc2c2cc(C(F)(F)F)ccc12 (stereo not drawn)
// result 48.6

// query Query growth on OVCAR-8 ovarian for COc1ccc(/C=C2\N=C(c3cccnc3)N(c3ccccc3)NC2=O)cc1
// result 95.9

// query Query growth on OVCAR-8 ovarian for COc1cc(C2CC(c3cccc(Nc4ccnc5cc(Cl)ccc45)c3)=NN2c2ccc(Cl)cc2)cc(OC)c1OC (stereo not drawn)
// result 55.2

// query Query growth on OVCAR-8 ovarian for O=C1OC(c2ccc(-c3ccccc3)cc2)=C/C1=C/c1c(Cl)cccc1Cl
// result 105

// query Query growth on OVCAR-8 ovarian for C#CC[C@@H]1C[C@]2(C)[C@H]3CC[C@@H]4[C@H]5C(C(=C)C)CC[C@]5(C(=O)NCCN(CCN)CCN)CC[C@@]4(C)[C@]3(C)CC[C@H]2C(C)(C)[C@H]1OC(C)=O (stereo partly drawn)
// result 72.1

// query Query growth on OVCAR-8 ovarian for Clc1ccc(Nc2ncnc3c2sc2ncccc23)c(Cl)c1
// result 4.31

// query Query growth on OVCAR-8 ovarian for N#Cc1nc(-c2cccc(Br)c2)cc(-c2ccc(Nc3nc(N4CCCCC4)nc(N4CCCCC4)n3)cc2)c1N
// result 12.2

Others:
// query Query growth on OVCAR-8 ovarian for C=CCn1c(SCC(=O)Nc2ccc(C(=O)/C=C/c3ccccc3)cc2)nnc1-c1ccc(OC)c(OC)c1
// result 78.5
